Sourced from patent US20220380459A1

molecular target: T1, human CD33 extracellular domain (human, UniProt P20138 18-259); assay: SPR, Fab captured, 37C;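 note: fabs captured on an anti-Fab surface, soluble monomeric CD33 ECD flowed over at several concentrations, double-referenced curves fit to a 1:1 binding model, KD taken as koff/kon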
T1 construct: soluble monomeric ECD; also called human CD33 ECD; hCD33
Readout Label: Kd (nM)
Give the value, in units of nM, as a plain number.

ADI-11776 Fab (Fab, V domains shown, Fab fragment; also called Ab3; H76) VH: EVQLLESGGGLVQPGGSLRLSCAASGFTFSKYTMSWVRQAPGKGLEWVSAIVGSGESTYFADSVKGRFTISRDNSKNTLYLQMNSLRAEDTAVYYCAREGGPYYDSSGYFVYYGMDVWGQGTTVTVSS VL: DIQMTQSPSTLSASVGDRVTITCRASQSISSWLAWYQQKPGKAPKLLIYKASSLESGVPSRFSGSGSGTEFTLTISSLQPDDFATYYCQQYDDLPTFGGGTKVEIK : 0.78
ADI-11826 Fab (Fab, V domains shown, Fab fragment; also called Ab26) VH: EVQLVESGGGLVQPGGSLRLSCAASGFTFPGYWMSWVRQAPGKGLEWVANINQDGSEVYYVDSVKGRFTISRDNAKNSLYLQMNSLRAEDTAVYYCAREANYYGNVGDDYWGQGTLVTVSS VL: DIQMTQSPSSLSASVGDRVTITCRASQSIYNYLNWYQQKPGKAPKLLIYAASSTQSGVPSRFSGSGSGTDFTLTISSLQPEDFATYYCQQAFHVPITFGGGTKVEIK : 2.63
ADI-10157 Fab (Fab, V domains shown, Fab fragment; also called Ab13) VH: QVQLQESGPGLVKPSETLSLTCTVSGGSISSYYWSWIRQPPGKGLEWIGSIYYSGSTNYNPSLKSRVTISVDTSKNQFSLKLSSVTAADTAVYYCARVGGVYSTIETYGMDVWGQGTTVTVSS VL: EIVMTQSPATLSVSPGERATLSCRASQSVSSNLAWYQQKPGQAPRLLIYGASTRATGIPARFSGSGSGTEFTLTISSLQSEDFAVYYCQQYTVYPPTFGGGTKVEIK : 2.69

May I ask what Kd has been recorded for ADI-11835 Fab (Fab, V domains shown, Fab fragment; also called Ab10; I35) VH: QLQLQESGPGLVKPSETLSLTCTVSGGSISSTDYYWGWIRQPPGKGLEWIGSIGYSGTYYNPSLKSRVTISVDTSKNQFSLKLSSVTAADTAVYYCARETAHDVHGMDVWGQGTTVTVSS VL: EIVLTQSPATLSLSPGERATLSCRASHSVYSYLAWYQQKPGQAPRLLIYDASNRATGIPARFSGSGSGTDFTLTISSLEPEDFAVYYCQQYDNLPTFGGGTKVEIK ?
0.53

Query ADI-10177 Fab (Fab, V domains shown, Fab fragment; also called Ab2) VH: EVQLVESGGGLVQPGGSLRLSCAASGFTFSSYWMSWVRQAPGKGLEWVANIKQDGSEKYYVDSVKGRFTISRDNAKNSLYLQMNSLRAEDTAVYYCARPLNAGELDVWGQGTMVTVSS VL: DIQMTQSPSTLSASVGDRVTITCRASQSISSWLAWYQQKPGKAPKLLIYEASSLESGVPSRFSGSGSGTEFTLTISSLQPDDFATYYCQQLESYPLTFGGGTKVEIK next
11.4

Repeat with ADI-11825 Fab (Fab, V domains shown, Fab fragment; also called Ab25) VH: EVQLVESGGGLVQPGGSLRLSCAASGFTFGGYWMSWVRQAPGKGLEWVANINQDGSEEYYVDSVKGRFTISRDNAKNSLYLQMNSLRAEDTAVYYCAREANYYGNVGDDYWGQGTLVTVSS VL: DIQMTQSPSSLSASVGDRVTITCRASQSIYNYLNWYQQKPGKAPKLLIYAASNLHSGVPSRFSGSGSGTDFTLTISSLQPEDFATYYCQQAFHVPITFGGGTKVEIK
1.78
